# Tested on: U2OS
# Measurement Protocol: Multiplex assay against U2OS
# Assay type: toxicity, cell-based
# Condition Set: human, 12 h, 1 µM, compound concentration 1 uM, replicate 2
Non-standard residues stand in square brackets, D forms with d. Residues, ends and D or L forms follow the SMILES beside them.
Below, each entry is listed with its recorded Population Tubulin-Different-Phenotype (%).
Recorded Endpoint: Population Tubulin-Different-Phenotype (%)

1. OCCCNc1cc(-c2ccnc(Nc3cccc(Cl)c3)n2)ccn1; 5
2. COCCCN1CCC(NC(=O)c2cc(Cl)c(N)c3c2OCC3)CC1 [PRUCALOPRIDE]; 8
3. COc1cc(OC2CCN(C(C)=O)CC2)ccc1C(=O)N1CCC(N2C(=O)OCc3ccccc32)CC1; 8
4. Cc1cc(O)c(-c2ccc([C@@H](C)CN(C)C)cc2)c2c1[nH]c(=O)c1sccc12; 14
5. CCC(=O)OCC(=O)[C@@]1(OC(=O)CC)[C@@H](C)C[C@H]2[C@@H]3CCC4=CC(=O)C=C[C@]4(C)[C@@]3(Cl)[C@@H](O)C[C@@]21C [BECLOMETHASONE DIPROPIONATE]; 4
6. CCc1nn2c(C)cc(C)nc2c1Cc1ccc(-c2nnc(C3CCNCC3)o2)cc1; 4
7. Cc1cc(-c2ccc3c(c2)CC[C@H]3N2CC3(CCN(C(=O)Cc4cn5cc(C)sc5n4)CC3)C2)ncn1; 3
8. Cc1c(Cc2ccc3ccccc3n2)c2cc(F)ccc2n1CC(=O)O; 3
9. Cc1ccc(OCC(O)C(C)NC(C)C)c2c1CCC2.Cl (configuration not stated); 2
10. COc1cc(C(=O)N2CC[C@@H](O)[C@@H](N)C2)cc2nc(-c3cc4ccccc4n3CC3CC3)n(C)c12.Cl; 15
11. COCCn1c(C)c(C)s/c1=N\C(=O)C1C(C)(C)C1(C)C; 5
12. Cl.Cl.OCCOCCN1CCN(C(c2ccccc2)c2ccc(Cl)cc2)CC1 (configuration not stated) [HYDROXYZINE HYDROCHLORIDE]; 8
13. CN(C)C(=O)Cn1cc(-c2ccc(-c3nnc4ccccn34)cc2)cn1; 4
14. CC(C)C[C@@H]1NC(=O)[C@@H](C(C)C)NC(=O)[C@@H]2CCCN2C(=O)[C@@H](CC(=O)O)NC(=O)[C@@H](Cc2c[nH]c3ccccc23)NC1=O [BQ-123] (cyclo(L[dW][dD]P[dV])); 8
15. CCn1c(-c2nc3cc(C(=O)N4CCCC(N)C4)ccc3n2C)cc2ccccc21.Cl (configuration not stated); 13
16. CN(C)C/C=C/C(=O)Nc1ccc(C(=O)N2CCCC(Nc3ncc(Cl)c(-c4c[nH]c5ccccc45)n3)C2)cc1 (configuration not stated); 8
17. CC(C)C[C@H](CO)Nc1nc(S[C@@H](C)c2ccccc2)nc2nc(N)sc12; 3
18. COc1cc(Nc2ncc3c(n2)-c2ccc(Cl)cc2C(c2c(F)cccc2OC)=NC3)ccc1C(=O)O; 11
19. Nc1nc(-c2ccco2)c2cnn(Cc3ccccc3F)c2n1; 8
20. CN1CCN2c3ccccc3Cc3ccccc3C2C1.Cl (configuration not stated) [MIANSERIN HYDROCHLORIDE]; 2
21. C=CCN1C[C@H](C(=O)N(CCCN(C)C)C(=O)NCC)C[C@@H]2c3cccc4[nH]cc(c34)C[C@H]21; 5
22. Cn1cc(C(=O)OCC2CCN(CCNS(C)(=O)=O)CC2)c2ccccc21; 6
23. S=C(NCCCc1c[nH]cn1)NCCCN(Cc1ccc(Cl)c(Cl)c1)c1ccc(Br)cn1; 1
24. CCCCCCNC(=O)Nc1ccc(S(=O)(=O)Nc2ccc(CCNC[C@H](O)COc3ccc(O)cc3)cc2)cc1; 5
25. Nc1nc(CC(=O)Nc2ccc(CCNC[C@H](O)c3ccccc3)cc2)cs1; 5
26. CN1C[C@H](C(=O)N[C@]2(C)O[C@@]3(O)[C@@H]4CCCN4C(=O)[C@H](Cc4ccccc4)N3C2=O)C[C@@H]2c3cccc4[nH]cc(c34)C[C@H]21.CS(=O)(=O)O [DIHYDROERGOTAMINE MESYLATE]; 7
27. O=C(Nc1cc(-c2ccccc2)nn1-c1ccccc1F)c1ccc([N+](=O)[O-])cc1; 9
28. COc1c(Nc2ccc(S(C)(=O)=O)nc2C)ncnc1OC1CCN(C(=O)OC(C)C)CC1; 2
29. CC(C)(C)c1ccc(CSc2cnn(C(C)(C)C)c(=O)c2Cl)cc1; 3
30. CN1CCN(c2ccc(Nc3c4ccccc4nc4ccccc34)cc2)CC1.Cl.Cl.O; 13
31. O=C(NCCNCC(O)COc1ccc(O)cc1)N1CCOCC1.O=C(NCCNCC(O)COc1ccc(O)cc1)N1CCOCC1.O=C(O)/C=C/C(=O)O (configuration not stated) [XAMOTEROL FUMARATE]; 5
32. COc1cc2nc(N3CCN(C(=O)c4ccco4)CC3)nc(N)c2cc1OC.Cl [PRAZOSIN HYDROCHLORIDE]; 8

Cited source for all entries: ChEMBL document CHEMBL5058577
